# assayed target: BCAT2 (Homo sapiens, UniProt O15382)
# experimental protocol: BCAT2 in vitro enzyme inhibition assay (resazurin/diaphorase-coupled fluorescence)
# Type: biochemical
# condition context: average where tested multiple times
readout kind: IC50

Below, each entry is followed by its recorded IC50 result.
> print(dat)
                                   molecule         result
1  COc1cc2c(cn1)nc(-c1ccccc1F)n2[C@@H]1C[C@@H](O)C[C@H](NC(=O)c2ncc(Cl)s2)C1 [Example 278]       ≤ 100 nM
2  O=C(N[C@@H]1CCC[C@H](n2c(-c3ccccc3F)nc3cnc(-n4nccn4)cc32)[C@H]1O)c1ncc(Cl)s1 [Example 114]  100 to 500 nM
3  COC(=O)N[C@H](c1nc2cnc(-c3nc[nH]n3)cc2n1[C@@H]1CCC[C@H](NC(=O)c2ncc(Cl)s2)C1)C(C)C [Example 370]      > 1000 nM
4  Cc1cnn(-c2cc3c(cn2)nc(CC(C)C)n3[C@@H]2CCC[C@H](NC(=O)c3ncc(Cl)s3)[C@H]2O)n1 [Example 243]       ≤ 100 nM
5  CC(C)Cc1nc2cnc(-c3nc[nH]n3)cc2n1[C@@H]1CCCC[C@H](NC(=O)c2ncc(Cl)s2)C1 [Example 374]       ≤ 100 nM

Lookup: Please list IC50 recorded for the molecule CC(C)[C@@H](O)c1nc2cnc(-c3ccccn3)cc2n1[C@@H]1CCC[C@H](NC(=O)c2ncc(Cl)s2)C1 [Example 305]
Found: ≤ 100 nM

Lookup: Please list IC50 recorded for the molecule O=C(N[C@H]1CCC[C@@H](n2c(-c3ccccn3)nc3cnc(-n4nccn4)cc32)C1)c1ncc(C(F)F)s1 [Example 21]
Found: ≤ 100 nM

----------
# assayed target: BCAT2 (Homo sapiens, UniProt O15382)
# experimental protocol: BCAT2 in vitro enzyme inhibition assay (resazurin/diaphorase-coupled fluorescence)
# Assay type: biochemical
# condition context: average where tested multiple times
Consider the following compounds and their measured IC50 readings.

Below, each entry is followed by its recorded IC50 result.
> print(dat)
                           smiles.structure         result
1  CC(C)Cc1nc2cnc(-c3nc[nH]n3)cc2n1[C@@H]1CCC[C@H](NC(=O)c2ccc(Cl)s2)[C@H]1O       ≤ 100 nM
2  CC(C)Cc1nc2cnc(-c3ncns3)cc2n1[C@@H]1CCC[C@H](NC(=O)c2ncc(Cl)s2)C1  100 to 500 nM
3  CC(C)Cc1nc2cnc(-n3cc(CO)nn3)cc2n1[C@@H]1CCC[C@H](NC(=O)c2ncc(Cl)s2)C1  100 to 500 nM

Could you now look at the following compound, please?
Lookup: Please list IC50 recorded for the compound O=C(N[C@H]1CCC[C@@H](n2c(-c3ccccc3F)nc3cnc(-c4cn[nH]c4)cc32)C1)c1ncc(Cl)s1
Found: ≤ 100 nM

----------
Consider the following molecules and their measured IC50 readings.
# assayed target: UniProt O15382
# experimental protocol: BCAT2 in vitro cell inhibition using engineered A549 cells (KMV cell assay, 13C6-KMV by LC-MS/MS)
# Type: cell-based
# Parameters: The result was an engineered A549 cell line that expressed endogenous BCAT2; endogenous in cells; host or cells: A549 cells with MUT and BCAT1 knocked out by CRISPR/CAS9
# condition context: average where tested multiple times

Below, each entry is followed by its recorded IC50 result.
> print(dat)
                                   molecule  assayed.target  readout.kind          result
1  CC(C)Cc1nc2cnc(-c3ccccc3CC#N)cc2n1[C@@H]1CCC[C@H](NC(=O)c2ccc(Cl)s2)C1  UniProt O15382          IC50  500 to 1000 nM
2  O=C(N[C@H]1CCCN(n2c(-c3ccccc3F)nc3cnc(-c4nc[nH]n4)cc32)C1)c1ncc(Cl)s1  UniProt O15382          IC50        ≤ 100 nM
3  CC(C)Cc1nc2cnc(-c3ccn(C(F)F)n3)cc2n1[C@@H]1CC(O)C[C@H](NC(=O)c2ncc(Cl)s2)C1 (stereo in doubt)  UniProt O15382          IC50  500 to 1000 nM
4  CC(C)Cc1nc2cnc(-n3nccn3)cc2n1[C@@H]1CCC[C@H](NC(=O)c2ncc(Cl)s2)C1  UniProt O15382          IC50        ≤ 100 nM

Lookup: Please list IC50 recorded for the molecule O=C(N[C@H]1CCC[C@@H](n2c(-c3ncccc3F)nc3cnc(-c4ncco4)cc32)C1)c1ccc(Br)s1
Found: ≤ 100 nM

Lookup: Please list IC50 recorded for the molecule O=C(NC1CCCC(n2c(-c3ncccc3F)nc3cnc(-c4ccccn4)cc32)C1O)c1ncc(Cl)s1 (stereo not shown)
Found: ≤ 100 nM

Lookup: Please list IC50 recorded for the molecule Cc1cn[nH]c1-c1cc2c(cn1)nc(-c1ccccc1F)n2[C@@H]1CCC[C@H](NC(=O)c2ncc(Cl)s2)C1
Found: ≤ 100 nM

----------
# assayed target: BCAT2 (Homo sapiens)
# experimental protocol: BCAT2 in vitro enzyme inhibition assay (resazurin/diaphorase-coupled fluorescence)
# Type: biochemical
# condition context: average where tested multiple times
readout kind: IC50

Below, each entry is followed by its recorded IC50 result.
> print(dat)
                                    compound  readout.kind     result
 1  COC[C@@H]1CCCN1c1cc2c(cn1)nc(-c1ccccc1F)n2[C@@H]1CCC[C@H](NC(=O)c2ncc(Cl)s2)C1 [Example 197]          IC50  > 1000 nM
 2  CC(C)Cc1nc2cnc(-c3cccc(F)n3)cc2n1[C@@H]1C[C@@H](O)C[C@H](NC(=O)c2ncc(Cl)s2)C1 (stereo in doubt) [Example 384]          IC50  > 1000 nM
 3  O=C(N[C@H]1CCC[C@@H](n2c(-c3ccccc3F)nc3cnc(-c4ncco4)cc32)C1)c1ccc(Br)s1 [Example 7]          IC50   ≤ 100 nM
 4  CO[C@H]1C[C@H](NC(=O)c2ncc(Cl)s2)C[C@H](n2c(CC(C)C)nc3cnc(-n4nccn4)cc32)C1 [Example 421]          IC50   ≤ 100 nM
 5  CC(C)C(F)c1nc2cnc(-c3ccccn3)cc2n1[C@@H]1CCC[C@H](NC(=O)c2ncc(Cl)s2)C1 (stereo partly shown) [Example 322]          IC50   ≤ 100 nM
 6  O=C(N[C@H]1CCC[C@@H](n2c(-c3ccccc3F)nc3cnc(-n4nccn4)cc32)[C@@H]1O)c1ncc(Cl)s1 (single isomer, unassigned) [Example 113]          IC50   ≤ 100 nM
 7  CC(=O)N1CC(NC(=O)c2ncc(C(F)F)s2)CC(n2c(-c3ccccn3)nc3cnc(-n4nccn4)cc32)C1 (stereo not shown) [Example 121]          IC50   ≤ 100 nM
 8  CC(C)(Cc1nc2cnc(-n3nccn3)cc2n1[C@@H]1CCC[C@H](NC(=O)c2ccc(Cl)s2)C1)C(=O)O [Example 190]          IC50  > 1000 nM
 9  O=C(N[C@H]1CCC[C@@H](n2c(C3CCCCO3)nc3cnc(-c4nc[nH]n4)cc32)C1)c1ncc(Cl)s1 (single isomer, unassigned) [Example 90]          IC50   ≤ 100 nM
10  O=C(N[C@H]1CCC[C@@H](n2c(-c3ccccn3)nc3cc(-n4ccnn4)ncc32)C1)c1ccc(Br)s1 [Example 152]          IC50   ≤ 100 nM

Lookup: Please list IC50 recorded for the compound Cc1nc(-c2cc3c(cn2)nc(CC(C)C)n3[C@@H]2CCC[C@H](NC(=O)c3ncc(Cl)s3)C2)cs1 [Example 158]
Found: ≤ 100 nM

Lookup: Please list IC50 recorded for the compound O=C(N[C@H]1CCC[C@@H](n2c(-c3ccccn3)nc3cnc(-c4nc[nH]n4)cc32)C1)c1ncc(C(F)F)s1 [Example 53]
Found: ≤ 100 nM

Lookup: Please list IC50 recorded for the compound O=C(N[C@H]1CCC[C@@H](n2c(C3CCCCO3)nc3cnc(-c4nc[nH]n4)cc32)C1)c1ncc(Cl)s1 (single isomer, unassigned) [Example 89]
Found: ≤ 100 nM

----------
# assayed target: BCAT2 (Homo sapiens)
# Sequence (O15382 28-392): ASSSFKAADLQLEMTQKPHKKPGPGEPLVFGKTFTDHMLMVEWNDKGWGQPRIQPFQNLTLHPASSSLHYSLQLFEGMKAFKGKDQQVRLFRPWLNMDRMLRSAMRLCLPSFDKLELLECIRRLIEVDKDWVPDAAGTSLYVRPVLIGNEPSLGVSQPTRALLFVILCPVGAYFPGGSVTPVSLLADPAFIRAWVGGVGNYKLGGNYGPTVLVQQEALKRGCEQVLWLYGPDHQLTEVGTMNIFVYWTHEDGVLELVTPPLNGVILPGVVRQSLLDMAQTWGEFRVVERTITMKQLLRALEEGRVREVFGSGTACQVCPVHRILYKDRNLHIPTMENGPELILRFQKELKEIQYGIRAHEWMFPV
# experimental protocol: BCAT2 in vitro cell inhibition using engineered A549 cells (KMV cell assay, 13C6-KMV by LC-MS/MS)
# Type: cell-based
# Design: The result was an engineered A549 cell line that expressed endogenous BCAT2; endogenous in cells; host or cells: A549 cells with MUT and BCAT1 knocked out by CRISPR/CAS9
# condition context: average where tested multiple times
pIC50: −log10 of the molar value.
readout kind: pIC50

> print(dat)
                                   compound        assayed.target  readout.kind        result
1  NC1CC(NC(=O)c2ncc(Cl)s2)CC(n2c(-c3ccccc3F)nc3cnc(-c4nc[nH]n4)cc32)C1 (single isomer, unassigned)  BCAT2 (Homo sapiens)         pIC50  6.30 to 7.00
2  CC(C)Cc1nc2cnc(-c3ncon3)cc2n1[C@@H]1CCC[C@H](NC(=O)c2ncc(Cl)s2)C1  BCAT2 (Homo sapiens)         pIC50  6.00 to 6.30
3  O=C(N[C@H]1CCC[C@@H](n2c(-c3ccccc3F)nc3cnc(-c4ncccn4)cc32)C1)c1ncc(Cl)s1  BCAT2 (Homo sapiens)         pIC50        ≥ 7.00
4  O=C(N[C@H]1CCC[C@@H](n2c(-c3ccccc3F)nc3cnc(-c4ccc(F)cn4)cc32)C1)c1ncc(Cl)s1  BCAT2 (Homo sapiens)         pIC50        ≥ 7.00
5  CC(C)Cc1nc2cnc(-c3cscn3)cc2n1[C@@H]1CCC[C@H](NC(=O)c2ncc(Cl)s2)C1  BCAT2 (Homo sapiens)         pIC50  6.30 to 7.00

Lookup: // output pIC50; input O=C(N[C@H]1CCC[C@@H](n2c(-c3ccccc3F)nc3cnc(-c4ccccn4)cc32)[C@@H]1O)c1ncc(Cl)s1 ; system BCAT2 (Homo sapiens)
Found: ≥ 7.00

Lookup: // output pIC50; input O=C(N[C@H]1CCC[C@@H](n2c(-c3ccccc3F)nc3cnc(-n4ccnn4)cc32)C1)c1ncc(C(F)F)s1 ; system BCAT2 (Homo sapiens)
Found: 6.30 to 7.00
